test target: αPMM/PGM from P. aeruginosa (Pseudomonas aeruginosa, UniProt P26276)
Sequence (P26276 whole entry): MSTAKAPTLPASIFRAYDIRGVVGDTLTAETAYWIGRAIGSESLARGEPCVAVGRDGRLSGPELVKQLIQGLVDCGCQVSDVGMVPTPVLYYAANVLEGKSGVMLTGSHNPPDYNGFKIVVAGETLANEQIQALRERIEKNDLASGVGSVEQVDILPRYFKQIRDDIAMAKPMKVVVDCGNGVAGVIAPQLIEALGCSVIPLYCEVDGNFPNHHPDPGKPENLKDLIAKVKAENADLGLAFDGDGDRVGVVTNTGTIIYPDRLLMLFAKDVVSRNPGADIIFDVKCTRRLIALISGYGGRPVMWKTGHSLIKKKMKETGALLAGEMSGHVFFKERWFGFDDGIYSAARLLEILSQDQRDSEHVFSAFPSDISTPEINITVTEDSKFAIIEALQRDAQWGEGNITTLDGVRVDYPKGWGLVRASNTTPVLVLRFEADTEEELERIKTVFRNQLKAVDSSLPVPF
measurement protocol: IC50 determination of αPMM/PGM
Type: biochemical
// values below are reported Ki
State just the number; it will be interpreted in µM.

// solved cases for Ki follow
compound | Ki, µM
O=P(O)(O)OC[C@H]1O[C@@](O)(CF)[C@H](O)[C@@H](O)[C@@H]1O [compound 2] | 117
C[C@]1(O)O[C@H](COP(=O)(O)O)[C@@H](O)[C@H](O)[C@H]1O [compound 1, 1-Deoxy-α-D-gluco-heptulose 7-Phosphate] | 65

Then this compound:
### Prompt State the recorded Ki for this entry: O=P(O)(O)OC[C@H]1O[C@@](O)(C(F)F)[C@H](O)[C@@H](O)[C@@H]1O [compound 3]
### Response 144

Hey, just so you know, these numbers are from paper PMC6547622.
